# Experimental protocol: F508del CFTR correction, initial screen, CFBE line, single point (AID 720511);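 note: cells transiently co-express mutant CFTR-F508del with the halide-sensitive YFP; corrector assay measuring rescue of mutant channel to the surface after 24 h compound exposure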
# Assay context: CFBE cells, YFP halide quenching, at 7.58 µM, % fluorescence drop versus neutral controls, stimulated with forskolin plus potentiator P3
Out of some 350,000 compounds screened, about 1,300 (0.37%) were called active.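 Rule for the calls: active = mean added fluorescence quench of at least 8% versus neutral control, with both replicates also reaching 8%; inconclusive = only one of the mean or replicate conditions met; inactive = mean below 8% and not both replicates reaching 8%.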 What follows is part of a selection rich in actives, with near analogues and random picks from the rest.
Select the matching outcome among yes (active), no (inactive)

Some solved entries appear below for comparison.
Identify the outcome logged in this assay for the compound shown: `CCN(CC)c1ccc(/C=N/NC(=O)c2cnccn2)c(O)c1`
yes

Identify the outcome logged in this assay for the compound shown: `Cc1ccccc1-c1ccc([C@H]2[C@H]3CN(S(=O)(=O)c4ccc(F)cc4)CCCCN3[C@H]2CO)cc1`
no

Identify the outcome logged in this assay for the compound shown: `Cc1noc(C)c1NC(=O)N(C)C[C@H]1OCCCC[C@@H](C)Oc2ccc(NC(=O)NC(C)C)cc2C(=O)N([C@H](C)CO)C[C@@H]1C`
no

Identify the outcome logged in this assay for the compound shown: `CCS(=O)(=O)N1CC2(CN(C(=O)c3ccc(F)cc3)[C@H](CO)c3c2c2ccc(OC)cc2n3C)C1`
no

Identify the outcome logged in this assay for the compound shown: `CO[C@H]1CN(C)C(=O)c2ccc(NS(=O)(=O)c3ccccc3C)cc2OC[C@H](C)NC[C@H]1C`
no

Identify the outcome logged in this assay for the compound shown: `COc1ccccc1C#Cc1ccc([C@@H]2[C@@H](CO)N(C(=O)C3CC3)[C@H]2C#N)cc1`
no

Switching to the query record.
Identify the outcome logged in this assay for the compound shown: `O=C(c1cnccn1)N1CC[C@@H]2[C@H](CO)Nc3ccc(-c4cccc(F)c4)cc3[C@@H]21`
no

====

# Experimental protocol: F508del CFTR correction, initial screen, CFBE line, single point (AID 720511);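 note: cells transiently co-express mutant CFTR-F508del with the halide-sensitive YFP; corrector assay measuring rescue of mutant channel to the surface after 24 h compound exposure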
# Assay context: CFBE cells, YFP halide quenching, at 7.58 µM, % fluorescence drop versus neutral controls, stimulated with forskolin plus potentiator P3
Out of some 350,000 compounds screened, about 1,300 (0.37%) were called active.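 How the source made its calls: active means mean added fluorescence quench of at least 8% versus neutral control, with both replicates also reaching 8%; inconclusive means only one of the mean or replicate conditions met; inactive means mean below 8% and not both replicates reaching 8%.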 Shown is part of a subset that was picked to be rich in actives.
Select the matching outcome among 1 = active, 0 = inactive

Identify the outcome logged in this assay for the compound shown: COc1ccc(NC(=O)C2(C)Cc3c(-c4cccc(NC(C)=O)c4)ccnc3O2)cc1OC (stereo not given)
0

---
Identify the outcome logged in this assay for the compound shown: `CC(C)(C)c1cc(C(=O)NN)n(Cc2ccc(Cl)cc2Cl)n1`
1

Identify the outcome logged in this assay for the compound shown: `O=S(=O)(NCc1ccc(Cl)cc1Cl)c1cccs1`
0

Identify the outcome logged in this assay for the compound shown: `O=S(=O)(NC1CC1)c1ccc(Cl)cc1`
0

Identify the outcome logged in this assay for the compound shown: `O=S(=O)(Cc1ccc(Cl)cc1Cl)c1ccc(Cl)cc1`
1

Identify the outcome logged in this assay for the compound shown: `CC(C)(C)NC(=O)NC(=O)COC(=O)Cc1ccc(Cl)cc1Cl`
0

Identify the outcome logged in this assay for the compound shown: CC(=O)Nc1cccc(-c2ccnc3c2CC(C)(C(=O)NCc2ccco2)O3)c1 (stereo not given)
0

Identify the outcome logged in this assay for the compound shown: `C[C@@H]1CCCCO[C@H](CN(C)C(=O)CCC(F)(F)F)[C@@H](C)CN([C@@H](C)CO)C(=O)c2cc(NC(=O)c3ccncc3)ccc2O1`
0

Identify the outcome logged in this assay for the compound shown: CC1(C(=O)NCc2ccc(F)c(F)c2)Cc2c(-c3ccc4c(c3)OCO4)ccnc2O1 (stereo not given)
0

Identify the outcome logged in this assay for the compound shown: `CCS(=O)(=O)N1CCC2(CC1)CN[C@H](CO)c1c2c2ccc(OC)cc2n1C`
0
